Study target: APOL1 G1 (Homo sapiens, UniProt O14791, I384M/S342G)
Sequence (O14791 28-398 S342G/I384M): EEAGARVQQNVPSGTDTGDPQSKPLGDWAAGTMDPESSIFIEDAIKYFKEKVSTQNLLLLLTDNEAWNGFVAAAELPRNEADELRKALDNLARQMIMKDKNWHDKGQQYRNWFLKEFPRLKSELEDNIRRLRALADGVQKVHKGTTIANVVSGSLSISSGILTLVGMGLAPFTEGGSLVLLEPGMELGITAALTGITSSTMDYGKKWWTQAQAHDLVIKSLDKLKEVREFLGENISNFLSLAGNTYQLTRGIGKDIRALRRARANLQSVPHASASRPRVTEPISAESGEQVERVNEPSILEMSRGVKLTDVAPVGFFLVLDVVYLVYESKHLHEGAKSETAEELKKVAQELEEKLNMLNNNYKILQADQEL
Run description: MultiTox-Fluor Multiplex Cytotoxicity Assay, tet-inducible APOL1 G1 T-REx-HEK293 cells
Format: cell-based
Design: expressed in transfected cells; host or cells: T-REx HEK293, clone G1 DC3.25 (pAAVS1-Puro-APOL1 G1)
Condition: HEK293, Multi-Tox Assay; APOL1 variant (G0/G1/G2) of the HEK293 cells not given; read-out: Multi-Tox Assay IC90
Reported metric: IC90

Molecule: C[C@H]1C[C@@]2(C[C@@H](c3ccnc(N(C)C)n3)N1)OCCc1cc(Cl)sc12 (racemic)
Study target: APOL1 G1 (Homo sapiens, UniProt O14791, I384M/S342G)
Result: 50 to 500 nM
//
Molecule: C[C@H]1C[C@@]2(C[C@@H](c3ncnn3C)N1)OCCc1cc(Cl)sc12 (racemic)
Study target: APOL1 G1 (Homo sapiens, UniProt O14791, I384M/S342G)
Result: > 500 nM
//
Molecule: C[C@H]1CC2(CC(c3cn(C)cn3)N1)OCC(O)c1cc(Cl)sc12 (single isomer, unassigned)
Study target: APOL1 G1 (Homo sapiens, UniProt O14791, I384M/S342G)
Result: < 50 nM
//
Molecule: CC1CC2(CC(c3cn(CC4CC4)nn3)N1)OCCc1cc(Cl)sc12 (stereo not shown)
Study target: APOL1 G1 (Homo sapiens, UniProt O14791, I384M/S342G)
Result: 50 to 500 nM

====

Catalogue of IC90 readings, one per entry.
Study target: APOL1 G1 (Homo sapiens, UniProt O14791, I384M/S342G)
Run description: MultiTox-Fluor Multiplex Cytotoxicity Assay, tet-inducible APOL1 G1 T-REx-HEK293 cells
Format: cell-based
Design: expressed in transfected cells; host or cells: T-REx HEK293, clone G1 DC3.25 (pAAVS1-Puro-APOL1 G1)
Condition: HEK293, Multi-Tox Assay; APOL1 variant (G0/G1/G2) of the HEK293 cells not given; read-out: Multi-Tox Assay IC90

Compound: Cc1nc2c([C@@H]3C[C@]4(C[C@H](C)N3)OCCc3cc(Cl)sc34)cccc2o1 (racemic)
Study target: APOL1 G1 (Homo sapiens, UniProt O14791, I384M/S342G)
IC90: > 0.5 µM

Compound: C[C@H]1C[C@@]2(C[C@@H](c3cccc4[nH]c(=O)oc34)N1)OCCc1cc(Cl)sc12 (racemic)
Study target: APOL1 G1 (Homo sapiens, UniProt O14791, I384M/S342G)
IC90: 0.05 to 0.5 µM

Compound: Cc1nccnc1[C@@H]1C[C@]2(C[C@H](C)N1)OCCc1cc(Cl)sc12 (racemic)
Study target: APOL1 G1 (Homo sapiens, UniProt O14791, I384M/S342G)
IC90: > 0.5 µM

Compound: Cc1ccc([C@@H]2C[C@]3(C[C@H](C)N2)OCCc2cc(Cl)sc23)cn1 (racemic)
Study target: APOL1 G1 (Homo sapiens, UniProt O14791, I384M/S342G)
IC90: < 0.05 µM

Compound: C[C@H]1CC2(C[C@H](C)N1)OCCc1sc(C(F)(F)F)cc12 (stereo partly drawn)
Study target: APOL1 G1 (Homo sapiens, UniProt O14791, I384M/S342G)
IC90: > 0.5 µM

Compound: C[C@H]1C[C@@]2(C[C@@H](c3cnn(CC(C)(CO)CO)c3)N1)OCCc1cc(Cl)sc12 (racemic)
Study target: APOL1 G1 (Homo sapiens, UniProt O14791, I384M/S342G)
IC90: < 0.05 µM

Compound: Cc1noc(C)c1Cn1cc([C@@H]2C[C@]3(C[C@H](C)N2)OC[C@@H](O)c2cc(Cl)sc23)nn1
Study target: APOL1 G1 (Homo sapiens, UniProt O14791, I384M/S342G)
IC90: 0.05 to 0.5 µM

Compound: COCc1cc([C@@H]2C[C@]3(C[C@H](C)N2)OCCc2cc(Cl)sc23)no1 (racemic)
Study target: APOL1 G1 (Homo sapiens, UniProt O14791, I384M/S342G)
IC90: < 0.05 µM

Compound: C[C@H]1C[C@@]2(C[C@@H](c3cn(CC4CCOCC4)nn3)N1)OCC(F)(F)c1cc(Cl)sc12
Study target: APOL1 G1 (Homo sapiens, UniProt O14791, I384M/S342G)
IC90: 0.05 to 0.5 µM

Compound: C[C@H]1C[C@@]2(C[C@@H](c3cccc(-c4cn[nH]c4)c3)N1)OCCc1cc(Cl)sc12 (racemic)
Study target: APOL1 G1 (Homo sapiens, UniProt O14791, I384M/S342G)
IC90: 0.05 to 0.5 µM

Compound: C[C@H]1C[C@@]2(C[C@@H](c3cn(Cc4ccc(O)nc4)nn3)N1)OC[C@@H](O)c1cc(Cl)sc12
Study target: APOL1 G1 (Homo sapiens, UniProt O14791, I384M/S342G)
IC90: > 0.5 µM

Compound: CC1CC2(CC(c3ccncc3)N1)OCCc1cc(Cl)sc12 (stereo not drawn)
Study target: APOL1 G1 (Homo sapiens, UniProt O14791, I384M/S342G)
IC90: < 0.05 µM

Data origin: patent EP4810040A2
